Values compiled from ChEMBL document CHEMBL1141905.

- Protocol description: Alpha half life period
- Assay type: ADME
Value type: half-life (min)
One number for each entry, in min.

Task: Entry CN1CCN(c2nc(-c3ccc(C(=O)NC4(C(=O)N[C@@H]5C(=O)N[C@@H]5Oc5ccccc5)CCCCC4)cc3)cs2)CC1 : reported half-life = ?
Result: 2

###

Record: Ki'' reported on UniProtKB P07711.
Sequence (P07711 114-333 limits assumed): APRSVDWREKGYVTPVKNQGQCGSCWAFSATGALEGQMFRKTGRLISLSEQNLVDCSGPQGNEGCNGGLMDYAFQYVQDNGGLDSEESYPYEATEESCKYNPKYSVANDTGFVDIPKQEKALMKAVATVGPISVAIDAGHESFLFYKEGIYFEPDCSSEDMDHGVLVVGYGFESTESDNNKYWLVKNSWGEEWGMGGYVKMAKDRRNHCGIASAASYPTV
Numbers only, in nM.

Guide cases for Ki'', answers given:
1) CC(=O)O[C@@H]1NC(=O)[C@H]1NC(=O)C1(NC(=O)c2ccc(-c3csc(N(C)C)n3)cc2)CCCCC1 | 390
2) CSc1ccc(C(=O)NC2(C(=O)N[C@@H]3C(=O)N[C@H]3OC(C)=O)CCCCC2)cc1 | 6400
3) CN1CCN(Nc2nc(-c3ccc(C(=O)NC4(C(=O)N[C@@H]5C(=O)N[C@@H]5Oc5ccccc5)CCCCC4)cc3)cs2)CC1 | 8.2

Now look at this entry.
Task: Reported Ki'', molecule CN(C)c1nc(-c2ccc(C(=O)NC3(C(=O)N[C@@H]4C(=O)N[C@H]4Oc4ccccc4)CCCCC3)cc2)cs1 : ____
Result: 89

###

- Assayed system: Cathepsin B (Homo sapiens)
- Protocol description: Apparent inhibitory constant against human cathepsin B
Value type: Ki''

// known answers, use as guide
1) CC(=O)O[C@@H]1NC(=O)[C@H]1NC(=O)C1(NC(=O)OCc2ccccc2)CCCCC1 | 4300 nM
2) CN1CCN(Nc2nc(-c3ccc(C(=O)NC4(C(=O)N[C@@H]5C(=O)N[C@H]5Oc5ccccc5)CCCCC4)cc3)cs2)CC1 | 6000 nM
3) CC(=O)O[C@@H]1NC(=O)[C@H]1NC(=O)C1(NC(=O)c2ccc(-c3csc(N(C)C)n3)cc2)CCCCC1 | 1400 nM

Consider the record given below.
Task: Fill in the recorded Ki'' for this compound, with Cathepsin B (Homo sapiens) as test system: CC(=O)O[C@@H]1NC(=O)[C@H]1NC(=O)C1(NC(=O)c2ccc(N(C)C)cc2)CCCCC1
Result: 530 nM
